Cited source for all entries: patent US12509460B2

- Test system: MDR1-MDCK cell monolayers
- Assay Procedure: Blood-brain-barrier (BBB) penetration potential via MDCK-MDR1 permeability assay
- Conditions Used: A-B direction
// label = T if MDCK-MDR1: % Recov A-B is not less than 70%, otherwise F

{"Compound": "C#Cc1ccc(-c2ccc(N(C)[C@H]3C[C@@H]4CC[C@@H](N4)[C@H]3F)nn2)c(O)c1 [Compound 10B]", "Target Under Test": "MDR1-MDCK cell monolayers", "Class": "F"}
{"Compound": "CN(c1ccc(-c2ccc(-c3cnn(C(F)F)c3)cc2O)nn1)[C@H]1C[C@@H]2CC[C@@H](N2)[C@H]1F [Compound 20B]", "Target Under Test": "MDR1-MDCK cell monolayers", "Class": "F"}

Record CN(c1ccc(-c2ccc(-n3cnc(C#N)c3)cc2O)nn1)[C@@H]1C[C@H]2CCC[C@H](N2)[C@@H]1F [Compound 63A] ; criterion: MDCK-MDR1: % Recov A-B no lower than 70%. Met?
T

Entry CN(c1ccc(-c2cc3ncn(CC(F)(F)F)c(=O)c3cc2O)nn1)[C@@H]1C[C@H]2CC(F)(F)[C@@H](C1)N2 [Compound 59A] please
T

Entry Cc1ccc(-c2ccc(-c3ccc(N(C)[C@H]4C[C@@H]5CC[C@@H](N5)[C@H]4F)nn3)c(O)c2)nn1 (single isomer, unassigned) [Compound 25B] please
T

---

Parameter EC50: see the listing below.
- Test system: mHTT protein in GM04724 (CAG 70/20) Huntington's disease patient lymphoblast cells
- Assay Procedure: mHTT protein assay, 2B7-MW1 assay via Mesoscale Discovery (MSD)
- Assay type: cell-based, human
- Conditions Used: GM04724 Huntington's disease patient lymphoblasts

Here are 5 compounds together with their reported answers.
{"Compound": "CN(c1ccc(-c2cc3ncn(CC(F)(F)F)c(=O)c3cc2O)nn1)[C@@H]1C[C@H]2CC(F)(F)[C@@H](C1)N2 [Compound 59A]", "EC50": "101 to 500 nM"}
{"Compound": "CN(c1ccc(-c2cc3nccnc3cc2O)nn1)[C@H]1C[C@@H]2CC[C@@H](N2)[C@H]1F [Compound 88B]", "EC50": "16 to 50 nM"}
{"Compound": "CN(c1ccc(-c2cc3cncnc3cc2O)nn1)[C@@H]1C[C@H]2CC[C@H](N2)[C@@H]1F [Compound 75A]", "EC50": "101 to 500 nM"}
{"Compound": "CN(c1ccc(-c2ccc(-n3ccnc3)cc2O)nn1)[C@@H]1C[C@H]2CCC[C@H](N2)[C@@H]1F [Compound 11A]", "EC50": "0.01 to 15 nM"}
{"Compound": "Cc1cc(=O)c2cc(-c3ccc(N(C)[C@@H]4C[C@H]5CC[C@H](N5)[C@@H]4F)nn3)c(O)cc2o1 [Compound 50A]", "EC50": "0.01 to 15 nM"}

Bench note: what EC50 did Cc1nc2cc(O)c(-c3ccc(N(C)[C@@H]4C[C@H]5CC[C@H](N5)C4F)nn3)cc2o1 (stereo in doubt) [Compound 40A] show?
101 to 500 nM

Entry CN(c1ccc(-c2ccc(C#N)cc2O)nn1)[C@@H]1C[C@H]2CCC[C@H](N2)[C@@H]1F [Compound 39A] please
16 to 50 nM

Entry CC#Cc1ccc(-c2ccc(N(C)[C@@H]3C[C@H]4CC[C@H](N4)[C@@H]3F)nn2)c(O)c1 (single isomer, unassigned) [Compound 30A] please
16 to 50 nM

Entry CN(c1ccc(-c2ccc(-c3cnn(C)c3)cc2O)nn1)[C@@H]1C[C@H]2CCC[C@H](N2)[C@@H]1F [Compound 15A] please
0.01 to 15 nM

Entry Cc1cnc(-c2ccc(-c3ccc(N(C)[C@H]4C[C@@H]5CCC[C@@H](N5)[C@H]4F)nn3)c(O)c2)o1 [Compound 16B] please
16 to 50 nM

Entry CN(c1ccc(-c2ccc(-n3cnc(C#N)c3)cc2O)nn1)[C@H]1C[C@@H]2CC[C@@H](N2)[C@H]1F [Compound 69B] please
16 to 50 nM

Entry CN(c1ccc(-c2ccc(-n3cnc(C#N)c3)cc2O)nn1)[C@@H]1C[C@H]2CC[C@H](N2)[C@@H]1F [Compound 69A] please
101 to 500 nM

Entry CN(c1ccc(-c2ccc(-n3nccn3)cc2O)nn1)[C@@H]1C[C@H]2CC[C@H](N2)[C@@H]1F [Compound 90A] please
0.01 to 15 nM

Entry CN(c1ccc(-c2cc3occc(=O)c3cc2O)nn1)[C@H]1C[C@@H]2CC[C@@H](N2)[C@H]1F [Compound 43B] please
0.01 to 15 nM

Entry CN(c1ccc(-c2ccc(-n3ccnn3)cc2O)nn1)[C@@H]1C[C@H]2CC[C@H](N2)[C@@H]1F [Compound 61A] please
16 to 50 nM

Entry CN(c1ccc(-c2cc3ncccc3cc2O)nn1)[C@H]1C[C@@H]2CC[C@@H](N2)[C@H]1F [Compound 73B] please
16 to 50 nM

Entry CN(C)C(=O)c1cc2cc(O)c(-c3ccc(N(C4CC4)[C@H]4C[C@@H]5CC[C@@H](N5)[C@H]4F)nn3)cc2o1 [Compound 86B] please
16 to 50 nM
